# Tested on: SF-539 CNS
# test description: NCI tumour cell line growth inhibition, 48 h
# Lookup of reported TGI keyed by entry
Express it in µM; write the number only.

NNC(=O)C(=O)NN=C(C(Cl)(Cl)CO)C(Cl)(Cl)CO :: 61.2
CCSCC1CC(O)(c2ccccc2)C(c2ccccc2)C(c2ccc(F)cc2)O1 (stereo not given) :: 3.07
NS(=O)(=O)c1nnc(NC(=S)NC(=O)Nc2ccc(Cl)c(Cl)c2)s1 :: 21.8

Continue with the compound presented below.
INPUT: Would you kindly share the measured TGI for CCN1/C(=C/C#C/C(C)=C\c2sc3ccc(Cl)cc3[n+]2CC)Sc2ccc(Cl)cc21 ?
OUTPUT: 16.1

---

# Tested on: MDA-MB-435
Where a SMILES comes first, the peptide text is derived from it. Bridges are numbered along the chain shown (N, C = ends). [ ]: non-standard residue; d: D form. aThr = C[C@H](O)[C@H](N)C(=O)O
Entry note: the call must match one of active, inactive

Here are 6 compounds together with their reported answers.
COc1ccc(Nc2cnc3cc(N)cc(N)c3n2)cc1 :: inactive
COCCN(CCOC)c1nc(-c2ccccc2)nc2ccccc12 :: inactive
COCCN(Cc1ccc(F)cc1)c1ccc(CO)c(Cl)c1 :: inactive
Cc1cnc(C(=O)NNc2nc3sc4c(c3c(=O)[nH]2)C(C)CCC4)cn1 (stereo not drawn) :: inactive
O=C1c2cc3c(cc2-c2c1c1ccc(Cl)cc1c(=O)n2C[C@H](O)CO)OCO3 :: active
CC(C)C[C@@H]1NC(=O)[C@@H]2CCCN2C(=O)[C@@H]2CCCN2C(=O)[C@H](CC(C)C)NC(=O)[C@H](CO)NC(=O)[C@H](CCCCN)NC(=O)[C@H]([C@H](C)O)NC(=O)[C@@H]2CSSC[C@@H](NC1=O)C(=O)N[C@@H](Cc1ccccc1)C(=O)N1CCC[C@H]1C(=O)N[C@@H](CC(=O)O)C(=O)NCC(=O)N[C@@H](CCCN=C(N)N)C(=O)N2 (cyclo(C[aThr]KSLPPL[dC]FPDGR); disulfide 1-9) :: inactive

INPUT: Called result for O=C(c1cccs1)c1c(C(F)(F)F)n([O-])c2cc(Cl)c(Cl)cc2[n+]1=O
OUTPUT: inactive

INPUT: Called result for CC(C)[C@@H]1CC[C@]2(CO2)[C@@H]2C(=O)OCC(C(=O)O)=C[C@H]21
OUTPUT: active

---

# Test system: SNB-19 CNS
# test description: NCI tumour cell line growth inhibition, 48 h; in the data active = GI50 below about 0.43 µM; inactive = the rest
Entry note: the call must match one of yes (1) = active, no (0) = inactive

Here are 5 compounds together with their reported answers.
COc1ccc(-c2[nH]c3ccc(OC)cc3c2C=C(C#N)C#N)cc1 :: no (0)
CC(C)[C@@H]1CC[C@]2(CO2)[C@@H]2C(=O)OCC(C(=O)O)=C[C@H]21 :: yes (1)
Nc1nc(=S)c2ncn(C3OC(COP(=O)(O)O)C(O)C3O)c2[nH]1 (centres undefined) :: no (0)
Cc1ccc(NC(=O)c2cc(S(=O)(=O)Nc3nnc(-c4ccccc4)c(-c4ccccc4)n3)c(SCc3ccccc3)cc2Cl)cc1 :: no (0)
OCCCCC#Cc1ccccc1C#Cc1cccc(C(F)(F)F)c1 :: no (0)

INPUT: Called result for CN(C)c1ccc(-c2cc(-c3ccc(Nc4nc(Nc5ccc(Cl)cc5)nc(Nc5ccc(Cl)cc5)n4)cc3)nc(N)c2C#N)cc1
OUTPUT: no (0)

---

# System: MALME-3M melanoma
# test description: NCI tumour cell line growth inhibition, 48 h; in the data active = GI50 below about 0.43 µM; inactive = the rest
Entry note: the call must match one of TRUE (active), FALSE (inactive)

Here are 4 compounds together with their reported answers.
C(=Nc1nc(SCc2ccccc2)nc2[nH]ncc12)c1cccs1 :: FALSE
CCN(CC)c1ccc2nc3ccc(=[N+](CC)CC)cc-3oc2c1 :: TRUE
C=C(CN1CCc2[nH]c3ccc(F)cc3c2C1)c1ccc(C(=O)Nc2ccccc2N)cc1 :: TRUE
N#CC(C#N)=C/C=C(\Sc1ccc(Cl)cc1)c1ccc(F)cc1 :: FALSE

Please examine the following record next.
INPUT: Called result for Nc1nc(=S)c2ncn(C3OC(COP(=O)(O)O)C(O)C3O)c2[nH]1 (stereo not given)
OUTPUT: FALSE

---

# Tested on: OVCAR-8 ovarian
# test description: NCI tumour cell line growth inhibition, 48 h
assay endpoint: TGI

CC(=O)c1ccc(N=NN2CCCC2)cc1 :: > 100 µM

INPUT: Would you kindly share the measured TGI for COc1ccccc1CNCCN1C(=O)c2ccc3c4c(ccc(c24)C1=O)C(=O)N(CCNCc1ccccc1OC)C3=O ?
OUTPUT: 0.505 µM

INPUT: Would you kindly share the measured TGI for CCC(c1ccccc1)c1noc(CCN(CC)CC)n1 (configuration not stated) ?
OUTPUT: > 100 µM

INPUT: Would you kindly share the measured TGI for O=C(CCCC(=O)Nc1ccc(Cl)cc1Cl)CC(=O)c1ccc2ccccc2c1 ?
OUTPUT: > 100 µM

INPUT: Would you kindly share the measured TGI for CN1C(=O)CC(=O)N1/C(=C/c1ccccc1)c1ccccc1 ?
OUTPUT: > 100 µM

INPUT: Would you kindly share the measured TGI for CC(C)C(Cl)CCC(C)(Cl)C(=O)CBr (configuration not stated) ?
OUTPUT: > 100 µM

INPUT: Would you kindly share the measured TGI for C1CCC(N=C2N(C3CCCCC3)C(=NC3CCCCC3)N2C2CCCCC2)CC1 ?
OUTPUT: > 100 µM

INPUT: Would you kindly share the measured TGI for O=c1[nH]c(N/N=C\C(O)C(O)C(O)C(O)CO)nc2ccccc12 (configuration not stated) ?
OUTPUT: > 100 µM

INPUT: Would you kindly share the measured TGI for COC(=O)c1cc(S(=O)(=O)NC2=NCC(C)NN2)c(S)cc1Cl (configuration not stated) ?
OUTPUT: > 100 µM

INPUT: Would you kindly share the measured TGI for CCCC(=O)CC(C)C(=O)C(=O)NC12CC3CC(CC(C3)C1)C2 (configuration not stated) ?
OUTPUT: > 100 µM

INPUT: Would you kindly share the measured TGI for N#Cc1c(NC(=O)C(F)(F)F)sc2c3c(=O)c4ccccc4c(=O)c=3oc3ccccc3c12 ?
OUTPUT: > 56 µM

INPUT: Would you kindly share the measured TGI for NC1=NC2(COC(c3ccccc3)(c3ccccc3)c3ccccc3)OC(COC(c3ccccc3)(c3ccccc3)c3ccccc3)C(O)C2O1 (configuration not stated) ?
OUTPUT: > 100 µM

INPUT: Would you kindly share the measured TGI for COCCOC1=C(Cl)C(=O)c2ccccc2C1=O ?
OUTPUT: 10.7 µM

INPUT: Would you kindly share the measured TGI for C=CCON(C(=O)OC(C)(C)C)C(C)(C)C ?
OUTPUT: > 100 µM

INPUT: Would you kindly share the measured TGI for ClCCOCCn1cnc2c(Cl)nc(Cl)nc21 ?
OUTPUT: 26.5 µM

INPUT: Would you kindly share the measured TGI for O=C1c2ccccc2C(=O)c2[nH]cnc21 ?
OUTPUT: > 100 µM

INPUT: Would you kindly share the measured TGI for COc1cc(C(=O)/C=C/c2cccc(Nc3ccnc4cc(Cl)ccc34)c2)cc(OC)c1OC ?
OUTPUT: 2.12 µM

INPUT: Would you kindly share the measured TGI for C(=Nc1nc(SCc2ccccc2)nc2[nH]ncc12)c1cccs1 ?
OUTPUT: > 100 µM

INPUT: Would you kindly share the measured TGI for O=C(NCCC1CNc2ccccc21)OCc1ccccc1 (configuration not stated) ?
OUTPUT: > 100 µM

---

# System: RPMI-8226 leukemia
# test description: NCI tumour cell line growth inhibition, 48 h
# Lookup of reported TGI keyed by entry

Known TGI results, listed for orientation:
COc1ccc2ccccc2c1C1=NC(C)(C)CO1 :: > 100 µM
NNC(=O)C(=O)NN=C(C(Cl)(Cl)CO)C(Cl)(Cl)CO :: > 100 µM

Continue with the compound presented below.
INPUT: Item C[C@@H](CC(=O)OCc1ccccc1)OC1OC(COC(=O)C(C)(C)C)C(OC(=O)C(C)(C)C)C(OC(=O)C(C)(C)C)C1OC(=O)C(C)(C)C (some centres not stated) with RPMI-8226 leukemia - TGI?
OUTPUT: > 100 µM

---

# Test system: MCF7 breast
# test description: NCI tumour cell line growth inhibition, 48 h; in the data active = GI50 below about 0.43 µM; inactive = the rest
Entry note: the call must match one of active, inactive

Here are 3 compounds together with their reported answers.
Cc1cc(Cl)nc(N(CCNc2ccnc3cc(Cl)ccc23)Cc2ccco2)n1 :: inactive
O=C(COc1ccc(/C=C2\Oc3ccccc3C2=O)cc1)Nc1nc2ccccc2s1 :: inactive
CC(=O)NC1C(O[C@H]2C[C@H]3[C@@H]4CC=C5C[C@@H](O)CC[C@]5(C)[C@H]4CC[C@]3(C)[C@H]2[C@H](C)C(=O)CCC(C)C)OCC(O)C1O (stereo partly drawn) :: inactive

INPUT: Called result for C=C(CN1CCc2[nH]c3ccc(F)cc3c2C1)c1ccc(C(=O)Nc2ccccc2N)cc1
OUTPUT: inactive

INPUT: Called result for COc1ccc(C(O)c2cc3c(N)c(C(=O)Nc4cccc5ccccc45)sc3nc2C)cc1 (stereo not drawn)
OUTPUT: active

INPUT: Called result for COc1cc(-c2nccc3[nH]c(-c4ccc5cc[nH]c5c4)nc23)cc(OC)c1OC
OUTPUT: active

INPUT: Called result for COCCN(Cc1ccc(F)cc1)c1ccc(CO)c(Cl)c1
OUTPUT: inactive

INPUT: Called result for Nc1nccc(-c2c(-c3ccc(F)cc3)nn3cc(C(F)(F)F)ccc23)n1
OUTPUT: inactive

INPUT: Called result for O=C1c2cc3c(cc2-c2c1c1ccc(Cl)cc1c(=O)n2C[C@H](O)CO)OCO3
OUTPUT: active

INPUT: Called result for C=C(C#N)C(=O)OCC(CC)CC.C=C(C#N)C(=O)OCC(CC)CC.CS(C)=O.CS(C)=O.Nc1c(N=Nc2ccc(-c3ccc(N=Nc4cc(S(=O)(=O)[O-])c5ccccc5c4N)cc3)cc2)cc(S(=O)(=O)[O-])c2ccccc12.[Pt+2]
OUTPUT: inactive

INPUT: Called result for CCC(c1ccccc1)c1noc(CCN(CC)CC)n1 (stereo not drawn)
OUTPUT: inactive

INPUT: Called result for Cc1cnc(C(=O)NNc2nc3sc4c(c3c(=O)[nH]2)C(C)CCC4)cn1 (stereo not drawn)
OUTPUT: inactive

INPUT: Called result for S=C1SCN(Cc2ccccc2)CN1Cc1ccco1
OUTPUT: inactive

Taken from PubChem BioAssay (NCI).
